Kindly state TGI for each of the entries shown.
Test system: DLD-1 colon
Assay: NCI tumour cell line growth inhibition, 48 h

{"columns": ["COMPOUND", "TGI"],
 "data": [
  ["COc1ccc(S(=O)(=O)Nc2ccccc2C(=O)O)cc1", "> 100 µM"],
  ["COC(=O)N(C(=O)OC)C(C(=O)O)C(C)C (configuration not stated)", "> 100 µM"],
  ["Cc1nc(Nc2ccc(Cl)cc2)sc1C(=O)NNc1ccc([N+](=O)[O-])cc1[N+](=O)[O-]", "28 µM"],
  ["Clc1ccc(SC(/C=C/NNC2=NC(c3ccccc3)C(c3ccccc3)=NN2)c2ccccc2)cc1 (configuration not stated)", "> 100 µM"],
  ["COc1cc([C@@H]2c3cc4c(cc3C(N)C3COC(=O)[C@@H]32)OCO4)cc(OC)c1O (some centres not stated)", "> 100 µM"],
  ["O=C1c2ccccc2C(Br)(Br)c2ccccc21", "> 31.6 µM"]
]}

Then this compound:
Reported TGI of Cc1ccc(S(=O)(=O)N/N=C(\c2nc3ccc(Cl)cc3[nH]c2=O)C(O)c2cccc([N+](=O)[O-])c2)cc1 (configuration not stated) : > 100 µM

Data provenance is PubChem BioAssay (NCI).
